biological target: EGFR^19del/T790M/C797S (Homo sapiens, UniProt P00533, T790M/C797S, form not given); construct: fused on or other part: Probably a GST tag on the cytoplasmic fragment, as in the vendor's product; assay: ELISA kinase activity inhibition, EGFR 19del/T790M/C797S; assay type: biochemical; details: ATP 5 μM, read-out: The average IC50 value (nM) for inhibiting the activity of different tyrosine kinases, EGFR^19del/T790M/C797S
Sequence (P00533 with tags, fused parts or gaps DEL746-750/T790M/C797S, form open): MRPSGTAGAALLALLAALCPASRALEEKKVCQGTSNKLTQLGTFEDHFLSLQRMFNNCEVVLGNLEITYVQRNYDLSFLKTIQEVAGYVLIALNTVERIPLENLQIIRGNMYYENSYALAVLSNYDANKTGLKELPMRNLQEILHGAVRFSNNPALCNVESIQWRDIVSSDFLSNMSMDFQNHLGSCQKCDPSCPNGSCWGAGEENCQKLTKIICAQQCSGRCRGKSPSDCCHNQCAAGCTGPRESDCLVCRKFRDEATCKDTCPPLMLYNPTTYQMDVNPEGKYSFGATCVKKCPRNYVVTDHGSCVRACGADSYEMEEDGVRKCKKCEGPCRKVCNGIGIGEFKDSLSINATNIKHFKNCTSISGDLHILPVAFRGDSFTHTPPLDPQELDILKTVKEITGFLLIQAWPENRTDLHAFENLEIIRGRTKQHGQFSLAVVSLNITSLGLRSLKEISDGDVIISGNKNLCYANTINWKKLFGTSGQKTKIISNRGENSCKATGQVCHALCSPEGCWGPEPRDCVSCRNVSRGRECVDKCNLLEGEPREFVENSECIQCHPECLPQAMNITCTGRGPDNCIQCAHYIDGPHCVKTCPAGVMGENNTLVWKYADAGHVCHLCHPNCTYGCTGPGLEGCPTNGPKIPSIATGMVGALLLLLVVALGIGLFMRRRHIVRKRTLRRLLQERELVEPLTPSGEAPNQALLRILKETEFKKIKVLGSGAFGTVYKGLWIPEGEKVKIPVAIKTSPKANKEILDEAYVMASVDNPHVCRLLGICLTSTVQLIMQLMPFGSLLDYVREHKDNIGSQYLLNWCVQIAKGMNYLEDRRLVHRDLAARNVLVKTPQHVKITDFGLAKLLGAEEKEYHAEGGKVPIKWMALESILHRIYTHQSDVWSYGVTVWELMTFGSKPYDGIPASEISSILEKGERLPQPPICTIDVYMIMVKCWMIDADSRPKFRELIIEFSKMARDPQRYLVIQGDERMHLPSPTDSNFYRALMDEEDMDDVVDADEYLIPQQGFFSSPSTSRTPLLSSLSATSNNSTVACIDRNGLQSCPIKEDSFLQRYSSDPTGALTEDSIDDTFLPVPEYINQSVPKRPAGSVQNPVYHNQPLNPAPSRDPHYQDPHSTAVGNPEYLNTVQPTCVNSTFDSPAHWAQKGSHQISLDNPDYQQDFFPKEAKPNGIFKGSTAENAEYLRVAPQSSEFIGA
# IC50 listing for each entry below
Only the number, expressed in nM, is required.

Examples from the recorded data:
C=C(C)c1cc2cc(c1N1CCOCC1)-c1cnn(c1)CCCOc1ccc3c(cn(S(=O)(=O)CC)c3c1)-c1nc(ncc1Cl)N2 [HC9002]; 24.7
CCS(=O)(=O)n1cc2c3ccc(cc31)OCCCn1ccc(n1)-c1cc(c(C3CC3)cc1N1CCOCC1)Nc1nccc-2n1 [FBH-3-66]; 33
CCS(=O)(=O)n1cc2c3ccc(cc31)OCCCn1cc(cn1)-c1cc(c(C)cc1N1CCN(C)CC1)Nc1ncc(Cl)c-2n1 [HC9452]; 4.3
CCS(=O)(=O)n1cc2c3ccc(cc31)OCCCn1ccc(n1)-c1cc(c(OC(C)C)cc1N1CCOCC1)Nc1nccc-2n1 [FBH-3-84]; 267

Please turn your attention to the following entry.
## Task Entry under review: CCS(=O)(=O)n1cc2c3ccc(cc31)OC(C)CCn1cc(cn1)-c1cc(c(OC)cc1N1CCOCC1)Nc1nccc-2n1 (centres unmarked) [WQX-1-86] . Reported IC50?
## Result 8.2

====

target: EGFR^WT (Homo sapiens, UniProt P00533); construct: purchased Eurofins; experiment: ELISA kinase activity inhibition, wild-type EGFR; assay type: biochemical; details: ATP 5 μM, read-out: The average IC50 value (nM) for inhibiting the activity of different tyrosine kinases, EGFR^WT
Sequence (P00533 25-1210): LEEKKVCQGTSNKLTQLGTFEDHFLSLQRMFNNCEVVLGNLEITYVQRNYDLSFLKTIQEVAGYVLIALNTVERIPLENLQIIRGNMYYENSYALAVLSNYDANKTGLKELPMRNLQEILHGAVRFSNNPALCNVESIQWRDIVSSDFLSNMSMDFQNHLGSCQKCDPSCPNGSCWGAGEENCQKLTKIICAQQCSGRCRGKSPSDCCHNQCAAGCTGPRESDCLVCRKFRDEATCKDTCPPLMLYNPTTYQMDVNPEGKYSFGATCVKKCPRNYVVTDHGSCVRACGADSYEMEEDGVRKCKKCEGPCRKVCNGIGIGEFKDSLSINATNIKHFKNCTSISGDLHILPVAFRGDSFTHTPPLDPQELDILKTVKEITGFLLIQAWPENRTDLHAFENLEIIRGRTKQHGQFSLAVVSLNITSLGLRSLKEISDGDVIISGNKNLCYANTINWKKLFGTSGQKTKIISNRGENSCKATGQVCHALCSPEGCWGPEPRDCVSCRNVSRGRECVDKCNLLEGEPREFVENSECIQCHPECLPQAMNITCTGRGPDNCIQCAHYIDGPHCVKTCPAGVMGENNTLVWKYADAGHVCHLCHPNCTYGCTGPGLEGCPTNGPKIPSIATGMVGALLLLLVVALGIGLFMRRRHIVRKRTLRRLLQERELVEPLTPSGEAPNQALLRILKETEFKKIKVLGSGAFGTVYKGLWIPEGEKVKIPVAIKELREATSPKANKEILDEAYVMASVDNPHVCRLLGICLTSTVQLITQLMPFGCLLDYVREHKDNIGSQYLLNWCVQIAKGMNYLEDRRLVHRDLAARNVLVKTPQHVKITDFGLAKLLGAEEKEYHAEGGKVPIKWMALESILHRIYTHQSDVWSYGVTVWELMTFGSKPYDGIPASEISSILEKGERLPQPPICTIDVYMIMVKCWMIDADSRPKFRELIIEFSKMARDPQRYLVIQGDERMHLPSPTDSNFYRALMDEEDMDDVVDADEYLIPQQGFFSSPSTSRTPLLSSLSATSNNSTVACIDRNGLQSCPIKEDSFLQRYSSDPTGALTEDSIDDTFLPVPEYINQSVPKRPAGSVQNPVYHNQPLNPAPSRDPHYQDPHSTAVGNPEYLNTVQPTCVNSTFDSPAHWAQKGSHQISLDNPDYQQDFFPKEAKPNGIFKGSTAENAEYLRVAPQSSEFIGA
parameter: IC50 (nM)
Give the value in nM but do not write nM after it.

CCS(=O)(=O)n1cc2c3ccc(cc31)OCCCCCCOc1cc(ccc1N1CCOCC1)Nc1ncc(Cl)c-2n1 [reference compound]; 190
Cc1cc(N2CCOCC2)c2cc1Nc1ncc(Cl)c(n1)-c1c[nH]c3cc(ccc13)OCCCn1cc-2cn1; 342
CCS(=O)(=O)n1cc2c3ccc(cc31)OCCCn1ccc(n1)-c1cc(c(OC3CC3)cc1N1CCOCC1)Nc1nccc-2n1; 189
CCS(=O)(=O)n1cc2c3ccc(cc31)OCCCn1cc(cn1)-c1cc(c(OC)cc1N1CCOCC1)Nc1ncc(Cl)c-2n1; 154

Consider the record given below.
## Task Query (compound): CCS(=O)(=O)n1cc2c3ccc(cc31)OCCCn1cc(cn1)-c1cc(c(OC)cc1N1CCN(C)CC1)Nc1nccc-2n1 ; field requested: IC50
## Result 898

====

Measured IC50 of individual entries
target: EGFR^WT (Homo sapiens, UniProt P00533); construct: purchased Eurofins; assay: ELISA kinase activity inhibition, wild-type EGFR; assay type: biochemical; settings: ATP 5 μM, read-out: The average IC50 value (nM) for inhibiting the activity of different tyrosine kinases, EGFR^WT

Here's what some known entries look like.
CCS(=O)(=O)n1cc2c3ccc(cc31)OCC1(CC1)Cn1cc(cn1)-c1cc(ccc1N1CCOCC1)Nc1ncc(Cl)c-2n1; > 1000 nM
CCS(=O)(=O)n1cc2c3ccc(cc31)OCCCn1cc(cn1)-c1cc(c(OC)cc1CN1CCOCC1)Nc1nccc-2n1; 141 nM
CCS(=O)(=O)n1cc2c3ccc(cc31)OCC(C)Cn1cc(cn1)-c1cc(ccc1N1CCOCC1)Nc1ncc(Cl)c-2n1 (centres unmarked); > 1000 nM
CCS(=O)(=O)n1cc2c3ccc(cc31)OCC1(CC1)Cn1cc(cn1)-c1cc(c(OC)cc1N1CCOCC1)Nc1nccc-2n1; > 1000 nM
CCS(=O)(=O)n1cc2c3ccc(cc31)OCCCn1cc(cn1)-c1cc(c(C)cc1N1CCOCC1)Nc1nccc-2n1 [HC950M]; 37.6 nM
CCS(=O)(=O)n1cc2c3ccc(cc31)OCCCn1cc(cn1)-c1cc(ccc1N1CCOCC1)Nc1ncc(Cl)c-2n1; > 1000 nM
CCS(=O)(=O)n1cc2c3ccc(cc31)OCCCn1ccc(n1)-c1cc(c(OC(F)(F)F)cc1N1CCOCC1)Nc1nccc-2n1; > 1000 nM

## Task State the recorded IC50 for this entry: CCS(=O)(=O)n1cc2c3ccc(cc31)OC(C)CCn1cc(cn1)-c1cc(c(OC)cc1N1CCOCC1)Nc1nccc-2n1 (centres unmarked)
## Result > 1000 nM
